B1: RNA-binding E3 ubiquitin-protein ligase MEX3C, residues 325 to 391; numbered along this chain, Q5U5Q3 (parent)
chain: GQTTVQVRVPYRVVGLVVGPKGATIKRIQQQTHTYIVTPSRDKEPVFEVTGMPENVDRAREEIEMHI

- Variants of: B1
- Test protocol: abundance fitness (aPCA) (normalised: wild type 0, dead -1); higher = more abundant; growth selection in yeast, the domain comes from the species named
- Details: Homo sapiens
Outcome measure: abundance fitness
Simply state the number, no unit and no words.

Which abundance fitness value is on record for K21M ? -0.031

Given V46T , state its recorded abundance fitness. -0.526

What value of measured abundance fitness is listed for I25A ? -0.811

Recorded abundance fitness of I36T , please. -0.899

I have this variant here, P39Q , and I need its recorded abundance fitness. -0.477

Quick one: abundance fitness of R41P ? 0.071

For G22D , what is its reported abundance fitness? -0.543

I would be grateful if you could share the reported abundance fitness for G51Q . -0.776

Using the record for P45E , report its abundance fitness. -0.375

Bench note: what abundance fitness did D42R show? -0.408

Endpoint output: abundance fitness of R27G . Value? -0.591

What does the data say about its abundance fitness? Entry: M52Q -0.021

Return reported abundance fitness; argument: F47P -0.974

What value of measured abundance fitness is listed for P45N ? -0.821

Which abundance fitness is reported for this variant? K26A -0.119

Requested field: abundance fitness. Item: E44V -0.472

Please give the measured abundance fitness for this variant: V46R -0.607

Record request: abundance fitness value, item H33C -0.426

Look up abundance fitness for this variant: V37R 0.138

Item I28F has what recorded abundance fitness? -0.467

Data request, read-out abundance fitness, for Q31W -0.966
